// data source = patent US20220339227A1

# ASSAY_PROCEDURE: Pharmacokinetic study in rats: dry powder insufflation of TFF-CBD and intravenous CBD solution
# Assay type: in vivo
# CONDITION: plasma; intravenous solution 10 mg/kg, rat, n=5, 2 h; read-out: Cannabidiol concentration in rat plasma, Intravenous
READOUT_TYPE: concentration at 2 h (µg/mL)
Answer with a number only, understood to be in µg/mL.

The compound identified as "C=C(C)[C@@H]1CCC(C)=C[C@H]1c1c(O)cc(CCCCC)cc1O" registered its concentration at 2 h at 0.272

* * *

# ASSAY_PROCEDURE: Pharmacokinetic study in rats: dry powder insufflation of TFF-CBD and intravenous CBD solution
# Assay type: in vivo
# CONDITION: plasma; intravenous solution 10 mg/kg, rat, n=5, 0.5 h; read-out: Cannabidiol concentration in rat plasma, Intravenous
READOUT_TYPE: concentration at 0.5 h (ng/mL)
Report the figure in ng/mL without appending any unit label.

Note to self: concentration at 0.5 h recorded for "C=C(C)[C@@H]1CCC(C)=C[C@H]1c1c(O)cc(CCCCC)cc1O" was 1040

* * *

# ASSAY_PROCEDURE: Pharmacokinetic study in rats: dry powder insufflation of TFF-CBD and intravenous CBD solution
# Assay type: in vivo
# CONDITION: plasma; intravenous solution 10 mg/kg, rat, n=5, 0.083 h; read-out: Cannabidiol concentration in rat plasma, Intravenous
READOUT_TYPE: concentration at 0.083 h
Write the numeric value and append its unit.

Data point: C=C(C)[C@@H]1CCC(C)=C[C@H]1c1c(O)cc(CCCCC)cc1O [Cannabidiol] ; concentration at 0.083 h = 4280 ng/mL
